Values from patent US20260193278A1

- Tested on: MCF-7 (human breast adenocarcinoma) cells
- protocol_text: In vitro dark cytotoxicity, MCF-7 cells (anticancer studies)
- Type: cell-based
- condition_description: MCF-7, dark, 24 h
- Experimental: MCF-7 (human breast adenocarcinoma) cells were cultured in Dulbecco's modified Eagle's medium-10% fetal bovine serum (DMEM-FBS) and PSA (penicillin/streptomycin/Amphotericin B) at 37° C. in an incubator (5% CO2) in 75 cm^2 vented flasks. The cultures were grown as a monolayer. The growth cells were transferred to well plates by trypsinizing with 0.25% trypsin-EDTA. […] It was studied from 5 to 120 μM both in the dark. […] Cell survival was expressed as percentage of control cells (cells without Pcs). […]
experimental_readout: Min. Death conc. (µM)
# number only, unit µM dropped from output

Qu. Please tell me the measured Min. Death conc. for `C[n+]1c(-c2ccc(Oc3ccc4c(c3)C3=Nc5c6ccc(Oc7ccc(-c8[nH]c9cc(F)cc(Br)c9[n+]8C)cc7)cc6c6[n]5[Zn][n]5c(c7ccc(Oc8ccc(-c9[nH]c%10cc(F)cc(Br)c%10[n+]9C)cc8)cc7c5=NC5=NC(=N6)c6cc(Oc7ccc(-c8[nH]c9cc(F)cc(Br)c9[n+]8C)cc7)ccc65)=NC4=N3)cc2)[nH]c2cc(F)cc(Br)c21.[I-].[I-].[I-].[I-]` ; system: MCF-7 (human breast adenocarcinoma) cells.
Ans. 10
